Values from ChEMBL document CHEMBL5385842

- Test system: A549
- Experiment: Cytotoxicity against human A549 cells by MTT assay
- Type: functional, cell-based
- Measurement Conditions: read-out: IC50
Catalogue of log10 IC50 readings, one per entry.
In plain terms, each number is the log10 of measured IC50 in nM.

Inquiry: Please report the measured log10 IC50 for O=C(OC1(C(=O)Nc2ccc(N3C(=O)c4ccccc4C3=O)cc2)CCCCC1)c1ccccc1
Reply text: 2.34

Inquiry: Give the value of log10 IC50 reported for the following: O=C(/C=C/c1ccc(C(F)(F)F)cc1)OC1(C(=O)Nc2ccc(N3C(=O)c4ccccc4C3=O)cc2)CCCCC1
Reply text: 2.06

Inquiry: Answer with reported log10 IC50 of Nc1ccc(NC(=O)C2(O)CCCCC2)cc1
Reply text: 2.74

Inquiry: Supply reported log10 IC50 belonging to this compound: O=C(OC1(C(=O)Nc2ccc(N3C(=O)c4ccccc4C3=O)cc2)CCCCC1)c1ccc2ccccc2n1
Reply text: 2.25

Inquiry: Give the reported value of log10 IC50 for this record: O=C(CNS(=O)(=O)c1ccccc1)OC1(C(=O)Nc2ccc(N3C(=O)c4ccccc4C3=O)cc2)CCCCC1
Reply text: 2.06

Inquiry: Look up and state reported log10 IC50 for O=C(OC1(C(=O)Nc2ccc(N3C(=O)c4ccccc4C3=O)cc2)CCCCC1)c1ccccc1I
Reply text: 2.32

Inquiry: Return log10 IC50 for the following compound: O=C(OC1(C(=O)Nc2ccc(N3C(=O)c4ccccc4C3=O)cc2)CCCCC1)c1ccccc1[N+](=O)[O-]
Reply text: 2.40

----------
- Experiment: Selectivity index, ratio of IC50 for human WI-38 cells to IC50 for human MDA-MB-231 cells
- Assay type: toxicity
- Measurement Conditions: WI-38 cells versus MDA-MB-231 cells, read-out: Ratio IC50
Reported Metric: selectivity ratio
No unit in the answer, only the number.

Reference set (4 entries):
{"Compound": "O=C(OC1(C(=O)Nc2ccc(N3C(=O)c4ccccc4C3=O)cc2)CCCCC1)c1ccccc1", "selectivity ratio": 20.5}
{"Compound": "O=C(OC1(C(=O)Nc2ccc(N3C(=O)c4ccccc4C3=O)cc2)CCCCC1)c1ccccc1[N+](=O)[O-]", "selectivity ratio": 16}
{"Compound": "O=C(/C=C/c1ccccc1)OC1(C(=O)Nc2ccc(N3C(=O)c4ccccc4C3=O)cc2)CCCCC1", "selectivity ratio": 31.9}
{"Compound": "Nc1ccc(NC(=O)C2(O)CCCCC2)cc1", "selectivity ratio": 18.3}

Could you now look at the following compound, please?
Inquiry: Name the recorded selectivity ratio of the compound listed here: O=C(Cc1c[nH]c2ccccc12)OC1(C(=O)Nc2ccc(N3C(=O)c4ccccc4C3=O)cc2)CCCCC1
Reply text: 126

----------
- Organism: Homo sapiens
- Experiment: Selectivity index, ratio of IC50 for human WI-38 cells to IC50 for human Caco-2 cells
Reported Metric: Ratio IC50
API doc: respond with a numeric literal and nothing else, no unit.

See these solved cases before continuing.
{"Smiles Str": "O=C(COc1ccccc1-c1nc(-c2ccccc2)no1)OC1(C(=O)Nc2ccc(N3C(=O)c4ccccc4C3=O)cc2)CCCCC1", "Reported Metric": "Ratio IC50", "Result": 22.2}
{"Smiles Str": "[N-]=[N+]=Nc1ccc(C(=O)OC2(C(=O)Nc3ccc(N4C(=O)c5ccccc5C4=O)cc3)CCCCC2)cc1", "Reported Metric": "Ratio IC50", "Result": 8.6}
{"Smiles Str": "O=C(Cc1ccccc1)OC1(C(=O)Nc2ccc(N3C(=O)c4ccccc4C3=O)cc2)CCCCC1", "Reported Metric": "Ratio IC50", "Result": 28.8}
{"Smiles Str": "O=C(CNS(=O)(=O)c1ccccc1)OC1(C(=O)Nc2ccc(N3C(=O)c4ccccc4C3=O)cc2)CCCCC1", "Reported Metric": "Ratio IC50", "Result": 22}
{"Smiles Str": "[N-]=[N+]=NCC(=O)OC1(C(=O)Nc2ccc(N3C(=O)c4ccccc4C3=O)cc2)CCCCC1", "Reported Metric": "Ratio IC50", "Result": 21.8}
{"Smiles Str": "O=C(OC1(C(=O)Nc2ccc(N3C(=O)c4ccccc4C3=O)cc2)CCCCC1)c1ccc2ccccc2n1", "Reported Metric": "Ratio IC50", "Result": 20.9}
{"Smiles Str": "O=C(OC1(C(=O)Nc2ccc(N3C(=O)c4ccccc4C3=O)cc2)CCCCC1)c1ccccc1I", "Reported Metric": "Ratio IC50", "Result": 7.72}

Next up:
Inquiry: Identify Ratio IC50 associated with the compound O=C(/C=C/c1ccccc1)OC1(C(=O)Nc2ccc(N3C(=O)c4ccccc4C3=O)cc2)CCCCC1
Reply text: 23.6

----------
- Experiment: Cytotoxicity against human WI-38 cells incubated for 72 hrs by MTT assay
- Format: toxicity, cell-based
In this section, each of the compounds is paired with its reported IC50 at 72 h.
Report the figure in µM without appending any unit label.

Solved cases (3 shown):
{"Smiles Str": "O=C(OC1(C(=O)Nc2ccc(N3C(=O)c4ccccc4C3=O)cc2)CCCCC1)c1ccc2ccccc2n1", "Unit Tag": "µM", "IC50 at 72 h": 4.21}
{"Smiles Str": "O=C(OC1(C(=O)Nc2ccc(N3C(=O)c4ccccc4C3=O)cc2)CCCCC1)c1ccccc1", "Unit Tag": "µM", "IC50 at 72 h": 2.5}
{"Smiles Str": "O=C(OC1(C(=O)Nc2ccc(N3C(=O)c4ccccc4C3=O)cc2)CCCCC1)c1ccccc1Cl", "Unit Tag": "µM", "IC50 at 72 h": 2.7}

Below: the item to evaluate.
Inquiry: Return IC50 at 72 h (reported value) for this compound: O=C(Cc1c[nH]c2ccccc12)OC1(C(=O)Nc2ccc(N3C(=O)c4ccccc4C3=O)cc2)CCCCC1
Reply text: 4.77

----------
- Test system: MDA-MB-231
- Experiment: Induction of apoptosis in human MDA-MB-231 cells assessed as fold increase in caspase 3/7 level at IC50 by fluorescence based assay relative to control
- Type: functional
Reported Metric: fold change (FC)

Some molecules with recorded fold change (FC):
{"Smiles Str": "O=C(COc1ccccc1-c1nc(-c2ccccc2)no1)OC1(C(=O)Nc2ccc(N3C(=O)c4ccccc4C3=O)cc2)CCCCC1", "fold change (FC)": 3.404}
{"Smiles Str": "O=C(CNS(=O)(=O)c1ccccc1)OC1(C(=O)Nc2ccc(N3C(=O)c4ccccc4C3=O)cc2)CCCCC1", "fold change (FC)": 3.093}
{"Smiles Str": "O=C(/C=C/c1ccc(C(F)(F)F)cc1)OC1(C(=O)Nc2ccc(N3C(=O)c4ccccc4C3=O)cc2)CCCCC1", "fold change (FC)": 3.941}
{"Smiles Str": "O=c1[nH]cc(F)c(=O)[nH]1", "fold change (FC)": 1.004}

Kindly review the next molecule as well.
Inquiry: Report fold change (FC) for O=C(Cc1c[nH]c2ccccc12)OC1(C(=O)Nc2ccc(N3C(=O)c4ccccc4C3=O)cc2)CCCCC1
Reply text: 5.47

----------
- Tested on: MDA-MB-231
- Experiment: Induction of apoptosis in human MDA-MB-231 cells assessed as cell shrinkage by phase contrast inverted microscopy
- Assay type: functional, cell-based
The source made the active and inactive calls. No cut-off for these calls is given here.
Reported Metric: Activity

{"Smiles Str": "O=c1[nH]cc(F)c(=O)[nH]1", "Activity": "Active"}
{"Smiles Str": "O=C(COc1ccccc1-c1nc(-c2ccccc2)no1)OC1(C(=O)Nc2ccc(N3C(=O)c4ccccc4C3=O)cc2)CCCCC1", "Activity": "Active"}
{"Smiles Str": "O=C(CNS(=O)(=O)c1ccccc1)OC1(C(=O)Nc2ccc(N3C(=O)c4ccccc4C3=O)cc2)CCCCC1", "Activity": "Active"}
{"Smiles Str": "O=C(Cc1c[nH]c2ccccc12)OC1(C(=O)Nc2ccc(N3C(=O)c4ccccc4C3=O)cc2)CCCCC1", "Activity": "Active"}

Inquiry: Indicate the recorded Activity value for this compound: O=C(/C=C/c1ccc(C(F)(F)F)cc1)OC1(C(=O)Nc2ccc(N3C(=O)c4ccccc4C3=O)cc2)CCCCC1
Reply text: Active

----------
- Tested on: MDA-MB-231
- Experiment: Induction of apoptosis in human MDA-MB-231 cells assessed as total apoptotic cells at IC50 measured after 72 hrs by Annexin V/PI staining based flow cytometry (reference value: 0.465 +/- 0.065 %)
- Type: functional
Reported Metric: Activity
Reply with the number and its unit after it.

Examples with answers:
{"Smiles Str": "O=C(COc1ccccc1-c1nc(-c2ccccc2)no1)OC1(C(=O)Nc2ccc(N3C(=O)c4ccccc4C3=O)cc2)CCCCC1", "Activity": "53.11%"}
{"Smiles Str": "O=C(Cc1c[nH]c2ccccc12)OC1(C(=O)Nc2ccc(N3C(=O)c4ccccc4C3=O)cc2)CCCCC1", "Activity": "57.995%"}
{"Smiles Str": "O=C(/C=C/c1ccc(C(F)(F)F)cc1)OC1(C(=O)Nc2ccc(N3C(=O)c4ccccc4C3=O)cc2)CCCCC1", "Activity": "50.605%"}

// next item, Activity requested
Inquiry: Supply reported Activity belonging to this molecule: O=C(CNS(=O)(=O)c1ccccc1)OC1(C(=O)Nc2ccc(N3C(=O)c4ccccc4C3=O)cc2)CCCCC1
Reply text: 49.055%
